- EXPERIMENT NOTES: in vitro model of metabolic stability, rat liver homogenate S-9
- Format: in vitro ADME
- CONDITIONS USED: rat
PARAMETER: half-life

-- ask Report half-life for C=C1/C(=C\C=C2/CCC[C@]3(C)[C@@H]([C@H](C)/C=C/C=C/C(O)(CC)CC)CC[C@@H]23)C[C@@H](O)C[C@@H]1O [seocalcitol] please.
-- reply 1.3 h

====

Task for the reader: assign each of the following compounds its reported U937, -log IC50.
- Test system: U937 leukemia cell
- EXPERIMENT NOTES: U937 leukemia cell assay (antiproliferative activity)
- Type: cell-based
- CONDITIONS USED: U937 leukemia cells
Respond using a number only.

-- ask Report U937, -log IC50 for C=C1/C(=C\C=C2/CCC[C@]3(C)[C@@H]([C@@H](C)[C@@H](C#CC[C@@](O)(CC)[C@@H](C)O)OCC)CC[C@@H]23)C[C@@H](O)C[C@@H]1O [Compound 108] please.
-- reply 8.9

-- ask Note, next up: C=C1/C(=C\C=C2/CCC[C@]3(C)[C@@H]([C@H](C)CCCC(C)(C)O)CC[C@@H]23)C[C@@H](O)C[C@@H]1O [1α,25(OH)2D3]
-- reply 7.5

-- ask Note, next up: C=C1C(=CC=C2CCCC3(C)C2CCC3C(C)C(C#CCC(O)(CC)C(C)O)OCC)CC(O)CC1O (stereo not shown) [Compound 103]
-- reply 9.0

-- ask Note, next up: C=C1C(=CC=C2CCCC3(C)C2CCC3C(C)C(C#CCC(O)(CC)CC)OCC)CC(O)CC1O (stereo not shown) [CB1093]
-- reply 9.5
